# Tested on: Staphylococcus aureus
# protocol: Antibacterial activity against Staphylococcus aureus RN4220 containing ORI23::qnr-cat promoter mutant by twofold dilution method
# Type: functional
Recorded measurements of MIC, one per entry
All answers are understood in µg/mL, so give the number only.

Solved cases below.
compound	output-unit	value-observed
COc1c(N2C[C@@H]3CCCN[C@@H]3C2)c(F)cc2c(=O)c(C(=O)O)cn(C3CC3)c12 [MOXIFLOXACIN]	µg/mL	0.25
O=C(O)c1cn(C2CC2)c2cc(N3CCNCC3)c(F)cc2c1=O [CIPROFLOXACIN]	µg/mL	2
C[C@@H]1CN(c2c(F)c(N)c3c(=O)c(C(=O)O)cn(C4CC4)c3c2F)C[C@H](C)N1 [SPARFLOXACIN]	µg/mL	1
C[C@H]1COc2c(N3CCN(C)CC3)c(F)cc3c(=O)c(C(=O)O)cn1c23.C[C@H]1COc2c(N3CCN(C)CC3)c(F)cc3c(=O)c(C(=O)O)cn1c23.O [LEVOFLOXACIN]	µg/mL	1

Shift focus to the following entry.
Please report the recorded MIC for CC1COc2c(N3CCN(C)CC3)c(F)cc3c(=O)c(C(=O)O)cn1c23 (stereo not given) [OFLOXACIN] .
2

* * *

# System: Lactococcus lactis
# protocol: Antibacterial activity against Lactococcus lactis IL-1419 containing ORI23::qnr-cat promoter mutant by twofold dilution method
# Format: functional
Measured MIC accompanies every entry in the list below.
API: value field is a number in µg/mL; no unit string.

compound	assayed-target	reported-property	output-unit	value-observed
CC1COc2c(N3CCN(C)CC3)c(F)cc3c(=O)c(C(=O)O)cn1c23 (centres undefined)	Lactococcus lactis	MIC	µg/mL	4
C[C@H]1COc2c(N3CCN(C)CC3)c(F)cc3c(=O)c(C(=O)O)cn1c23.C[C@H]1COc2c(N3CCN(C)CC3)c(F)cc3c(=O)c(C(=O)O)cn1c23.O	Lactococcus lactis	MIC	µg/mL	2
COc1c(N2C[C@@H]3CCCN[C@@H]3C2)c(F)cc2c(=O)c(C(=O)O)cn(C3CC3)c12	Lactococcus lactis	MIC	µg/mL	1

Can you look up the measured MIC of C[C@@H]1CN(c2c(F)c(N)c3c(=O)c(C(=O)O)cn(C4CC4)c3c2F)C[C@H](C)N1 for me?
4

* * *

# System: Lactococcus lactis
# protocol: Antibacterial activity against Lactococcus lactis IL-1419 containing ORI23 promoter by twofold dilution method
# Format: functional
reported-property: MIC (µg/mL)
Supply the numeric figure in µg/mL, leaving out any unit text.

Below, 3 compounds whose answers are already recorded.
compound	MIC / µg/mL
CC1COc2c(N3CCN(C)CC3)c(F)cc3c(=O)c(C(=O)O)cn1c23 (stereo not given)	1
O=C(O)c1cn(C2CC2)c2cc(N3CCNCC3)c(F)cc2c1=O	2
COc1c(N2C[C@@H]3CCCN[C@@H]3C2)c(F)cc2c(=O)c(C(=O)O)cn(C3CC3)c12	0.25

Query MIC on Lactococcus lactis for C[C@H]1COc2c(N3CCN(C)CC3)c(F)cc3c(=O)c(C(=O)O)cn1c23.C[C@H]1COc2c(N3CCN(C)CC3)c(F)cc3c(=O)c(C(=O)O)cn1c23.O
0.5

Which measured MIC belongs to C[C@@H]1CN(c2c(F)c(N)c3c(=O)c(C(=O)O)cn(C4CC4)c3c2F)C[C@H](C)N1 , tested on Lactococcus lactis?
0.5
